# Subject of test: Retinoic acid receptor RXR-alpha (Homo sapiens)
# Assay details: qHTS assay for small molecule antagonists of retinoid X receptor alpha signaling (AID 588546);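 note: cells stimulated with 9-cis-retinoic acid as agonist; % is set by controls: 0 for no effect and ±100 for the full control effect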
# Assay conditions: HEK293T RXRa-UAS-bla, beta-lactamase ratio, antagonist mode
Records with an inconclusive call do not appear.
Recorded endpoint: max response (%)
# output: bare number, implied unit %

Illustrative cases are given below, each with its answer.
Molecule	Endpoint value
CNC(=O)N(c1ccccc1)c1ccccc1	-3.69
CCCCCCC=O	7.58
CC(=O)Nc1ccc(N)cc1	0.952

Incoming: Request the reported max response associated with CC(C)N=C=NC(C)C
Outgoing: 7.57

Incoming: Would you kindly repeat that for CCOC(=O)OCC ?
Outgoing: -0.211

Incoming: Another molecule: CCCCC(CC)CNCC(CC)CCCC (stereo unspecified)
Outgoing: 10

Incoming: Moving on to CCN(C(=O)N(CC)c1ccccc1)c1ccccc1
Outgoing: 0.622
